target: human mGluR5a receptor (Homo sapiens, UniProt P41594); construct: cDNA subcloned into pcDNA3.1(-); assay: Cell-based functional Ca2+ mobilization assay (FDSS), potentiation of glutamate EC20 response; conditions: HEK cells transfected with human mGluR5 (H10H or H12H); in presence of EC20 glutamate; read-out: EC50
Sequence (P41594 21-1180 isoform P41594-2 limits assumed): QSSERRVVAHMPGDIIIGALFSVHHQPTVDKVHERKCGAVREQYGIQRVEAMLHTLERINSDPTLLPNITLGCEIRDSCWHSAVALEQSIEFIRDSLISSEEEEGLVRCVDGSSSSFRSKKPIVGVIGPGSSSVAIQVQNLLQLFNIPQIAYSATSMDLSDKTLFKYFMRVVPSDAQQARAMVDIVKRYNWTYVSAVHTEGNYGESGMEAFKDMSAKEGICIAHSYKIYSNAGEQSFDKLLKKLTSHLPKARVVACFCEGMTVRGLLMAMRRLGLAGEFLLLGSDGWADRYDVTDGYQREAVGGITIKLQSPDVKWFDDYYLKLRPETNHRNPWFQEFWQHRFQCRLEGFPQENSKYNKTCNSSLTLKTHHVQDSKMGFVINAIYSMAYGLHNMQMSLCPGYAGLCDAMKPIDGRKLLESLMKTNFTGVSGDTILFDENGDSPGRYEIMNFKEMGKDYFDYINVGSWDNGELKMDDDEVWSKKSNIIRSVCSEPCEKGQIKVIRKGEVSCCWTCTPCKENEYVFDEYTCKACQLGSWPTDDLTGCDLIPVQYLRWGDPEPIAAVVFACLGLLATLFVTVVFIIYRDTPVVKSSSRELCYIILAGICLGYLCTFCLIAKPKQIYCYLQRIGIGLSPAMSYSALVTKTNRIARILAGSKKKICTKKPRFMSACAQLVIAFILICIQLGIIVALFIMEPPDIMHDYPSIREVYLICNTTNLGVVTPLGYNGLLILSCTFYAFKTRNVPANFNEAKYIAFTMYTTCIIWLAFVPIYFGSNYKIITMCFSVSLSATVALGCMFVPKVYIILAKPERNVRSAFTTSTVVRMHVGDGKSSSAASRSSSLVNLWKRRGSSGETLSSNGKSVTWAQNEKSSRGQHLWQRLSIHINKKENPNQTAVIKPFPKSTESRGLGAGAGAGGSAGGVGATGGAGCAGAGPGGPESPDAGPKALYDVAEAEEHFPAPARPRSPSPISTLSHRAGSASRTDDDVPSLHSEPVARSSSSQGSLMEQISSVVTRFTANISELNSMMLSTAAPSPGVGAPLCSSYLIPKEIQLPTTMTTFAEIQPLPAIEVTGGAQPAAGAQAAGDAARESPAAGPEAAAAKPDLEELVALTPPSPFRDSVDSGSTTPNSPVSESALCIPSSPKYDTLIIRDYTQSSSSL
Items are presented alongside their recorded pEC50.
Friendly reminder that pEC50 comes from taking -log10 of the concentration in mol/L.

COc1ccc(F)c(N2CCn3nc(COc4ccccn4)cc3C2=O)n1 [Example 208]: 6.46
COc1ncc(C)cc1N1CCn2nc(COc3ccccc3)cc2C1=O [Example 298]: 6.59
C[C@@H]1Cn2nc(COc3ccccc3)cc2C(=O)N1CC1CC1 [Example 137]: 6.62
Cc1ccnc(N2CCn3nc(COc4ccccc4)cc3C2=O)c1 [Example 17]: 6.31
COc1cc(N2C(=O)c3cc(COc4ccccc4)nn3C[C@H]2C)ccc1F [Example 143]: 7.09
O=C1c2cc(COc3ccccc3)nn2CCN1c1ccc(F)cc1F [Example 3]: 6.94
Cc1ccnc(OCc2cc3n(n2)CCN(c2ccc(F)cc2)C3=O)c1F [Example 198]: 5.76
Cc1cc(N2CCn3nc(COc4ccccc4)cc3C2=O)ccc1F [Example 52]: 7.59
Cc1ccccc1N1CCn2nc(COc3ccccn3)cc2C1=O [Example 219]: 6.59
O=C1c2cc(COc3ccccc3)nn2CCN1c1ncccc1Cl [Example 68]: 6.49

Q) Which pEC50 is listed for O=C1c2cc(COc3ccccc3)nn2C(CO)CN1c1ccc(F)cc1 (racemic) [Example 263] ?
A) 5.92

Q) Which pEC50 value is on record for Cc1nc(N2C(=O)c3cc(COc4ccccc4)nn3C[C@H]2C)ccc1F [Example 140] ?
A) 6.77

Q) // query pEC50 value for entry COc1nccnc1N1CCn2nc(COc3ccccc3)cc2C1=O [Example 103]
A) 7.03

Q) Reported pEC50 for COc1cncc(N2CCn3nc(COc4ccc(F)cc4)cc3C2=O)n1 [Example 231] : what is it?
A) 6.96
